pIC50: −log10 of the molar value.
// compounds with reported pIC50 on Dipeptidyl peptidase 9 (Homo sapiens, UniProt Q86TI2), multi-publication
Sequence (Q86TI2 whole entry): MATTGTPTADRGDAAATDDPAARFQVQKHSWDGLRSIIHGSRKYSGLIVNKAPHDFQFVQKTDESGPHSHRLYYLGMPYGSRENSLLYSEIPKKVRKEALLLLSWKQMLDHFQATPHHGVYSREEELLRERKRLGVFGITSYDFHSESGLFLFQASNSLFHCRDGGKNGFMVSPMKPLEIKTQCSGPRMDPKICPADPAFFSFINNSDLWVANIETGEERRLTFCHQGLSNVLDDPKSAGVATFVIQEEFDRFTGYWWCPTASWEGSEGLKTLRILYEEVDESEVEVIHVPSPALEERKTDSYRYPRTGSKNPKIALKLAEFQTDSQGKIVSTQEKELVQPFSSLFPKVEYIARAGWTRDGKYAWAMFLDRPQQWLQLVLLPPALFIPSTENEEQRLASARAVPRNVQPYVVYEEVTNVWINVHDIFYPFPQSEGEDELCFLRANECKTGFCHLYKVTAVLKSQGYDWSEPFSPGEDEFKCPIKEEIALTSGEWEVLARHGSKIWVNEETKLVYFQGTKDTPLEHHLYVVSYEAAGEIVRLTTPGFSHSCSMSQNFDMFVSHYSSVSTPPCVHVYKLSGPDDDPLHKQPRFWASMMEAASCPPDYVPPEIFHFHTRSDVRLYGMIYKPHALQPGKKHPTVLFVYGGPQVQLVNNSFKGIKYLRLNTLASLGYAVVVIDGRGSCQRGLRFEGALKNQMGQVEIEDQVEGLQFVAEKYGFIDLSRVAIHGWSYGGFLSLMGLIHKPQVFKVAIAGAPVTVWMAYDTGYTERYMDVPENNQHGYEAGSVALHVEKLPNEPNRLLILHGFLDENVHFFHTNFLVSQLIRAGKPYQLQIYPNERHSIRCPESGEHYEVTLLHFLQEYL

Please review the entries below; each comes with its answer.
CCNC(=O)[C@@H](c1ccc(-c2ccc(F)cc2)cc1)[C@H](N)C(=O)N1CC[C@H](F)C1    < 4.00
CC(C)[C@@H](Oc1ccc(CNC(=O)[C@@H]2CCCN2C(=O)CC(N)Cc2c(F)c(F)c(F)c(F)c2F)cc1)C(=O)O.O=C(O)C(F)(F)F (some centres undefined)    < 4.00
CC1(C)c2nnc(C(F)(F)F)n2CCN1C(=O)C[C@H](N)Cc1cc(F)c(F)cc1F    4.70

Field: next compound
Kindly indicate its recorded pIC50. Item: N[C@H]1Cn2c(nc3ncccc32)C[C@@H]1c1cc(F)c(F)cc1F.O=C(O)C(F)(F)F.O=C(O)C(F)(F)F
< 4.00

----------
// molecules with IC50 on Dipeptidyl peptidase 9 (Homo sapiens, UniProt Q86TI2), multi-source literature

These solved cases illustrate the format of a correct answer.
C[C@@H](c1ccc(-c2ccc(=O)n(C)c2)cc1)[C@H](N)C(=O)N1CC[C@H](F)C1.O=C(O)C(F)(F)F    > 100 µM
N[C@@H](CC(=O)N1CCn2c(nnc2C(F)(F)F)C1CC(F)(F)F)Cc1cc(F)c(F)cc1F (stereo in doubt; 39a)    > 100 µM
N[C@@H](CC(=O)N1CCc2nc(C(F)(F)F)n(Cc3ccc(F)cc3)c2C1)Cc1cc(F)ccc1F    > 100 µM
CC#CCn1c(N2CCC[C@@H](N)C2)nc2c1c(=O)n(Cc1ccc(F)cc1C(=O)O)c(=O)n2C    > 100 µM
N[C@@H](CC(=O)N1CCn2cnnc2C1)Cc1ccc(F)c(F)c1    > 100 µM
CC#CCn1c(N2CCC[C@@H](N)C2)nc2c1c(=O)n(Cc1ccccc1C(=O)OC)c(=O)n2C    > 100 µM
C[C@@H](c1ccc(C(=O)[n+]2ccc[nH]2)cc1)[C@H](N)C(=O)N1CC[C@H](F)C1    > 100 µM
C[C@@H]1CN(C(=O)C[C@H](N)Cc2cc(F)c(F)cc2F)Cc2ccc(C(F)(F)F)n21.Cl    53 µM

Dear colleague, could you send me IC50 for each of the items below? Thanks.
1. CC[C@H](C)[C@H](N)C(=O)N1CCCCCC1
2. C[C@H](c1nc(-c2ccc(NS(C)(=O)=O)cc2Cl)no1)[C@H](N)C(=O)N1CC[C@H](F)C1
3. C[C@@H](c1ccc(-c2ccc(=O)n(C)c2F)cc1)[C@H](N)C(=O)N1CC[C@H](F)C1.O=C(O)C(F)(F)F
4. CS(=O)(=O)N(CCCC(F)(F)F)[C@H]1CC[C@H]([C@H](N)Cc2cc(F)ccc2F)CC1
5. CN(C)C(=O)[C@@H](c1ccc(-c2ccc(F)cc2)cc1)[C@H](N)C(=O)N1CCC1

["> 100 µM", "> 100 µM", "> 100 µM", "> 100 µM", "> 100 µM"]

// input: 2 molecules below; output: IC50 for each
1. CC[C@H](C)[C@H](N)C(=O)NC1CCCC1
2. CC(C)(CC(=O)N1CC[C@@H](F)C1)NCC(=O)N1C[C@@H](F)C[C@H]1C#N

> 100 µM
> 20 µM

I'm hoping you can list IC50 for every molecule here, please.
1. C[C@@H](c1ccc(-c2cc(F)c(=O)n(C)c2)cc1)[C@H](N)C(=O)N1CC[C@H](F)C1
2. CC(C)(CC(=O)N1CC[C@H](O)C1)NCC(=O)N1C[C@@H](F)C[C@H]1C#N
3. N[C@@H](CC(=O)N1CCn2c(nnc2C(F)(F)F)C1)Cc1ccc(F)cc1

["> 100 µM", "> 20 µM", "> 100 µM"]
